Data origin, for the record: the nanobody polyreactivity screen of Harvey et al. (2022)

Experiment: yeast display, Sf9 membrane polyspecificity reagent, FACS + sequencing; frameworks hold sequencing errors

Seq	polyreactivity (PSR sort gate)
QVQLVESGGGLVQAGGSLRLSCAASGSTYYAYAMGWYRQAPGKEREFVAAISSGGGSTYYADSVKGRFTISRDNAKNTVYLQMNSLKPVDTAVYYCAAVLYYYWRGYGPRSNRYDYWGQGTQVTVSS	high polyreactivity
QVQLVESGGGLVQAGGSLRLSCAASGFILYRYAMGWYRQAPGKERELVAAISSGGRTYYADSVKGRFTISRDNAKNTVYLQMNSLKPEDTAVYYCNAAYKNSPYDYWGQGTQVTVSS	high polyreactivity
QVQLVESGGGLVQAGGSLRLSCAASGRIFVKYAMGLYRQAPGKERELVAAIRSGGSTYYADSVKRRFTISRDNAKYTVYLQMNSLKPEDTAVYYCAADRNKHHYYNEPYDYWGQGTQVTVSS	low polyreactivity
QVQLVESGGGLVQAGGSLRLSCAASGRISTYTMGWYRQAPGKERELVATISTHASTNYSDSVKGRFTISRDNAKYTVYLQKYSMKPEDNAVFYCATTVPVILYVTPSTYAVVGYEYWGQGTQVTVSS	low polyreactivity
QVQLVESGGGLVQAGGSLRLSCAASGSTFRYYAMGWYRQAPGKERELVAAITYSGGRTYYADSVKGRFTISRDNAKNTVYLQMNSLKPEDTAVYYCAASFRAWSGNYWGQGTQVTVSA	high polyreactivity
QVQLEESVGGLVQAGGSLRLSCAASGFTFHRYAMGWYTQAPGKERELVAGITRRSGSTFYADSVQGRFTISRDNAKNTVFLQMNSLKPEDTAVYYCAATVPGLHWIYDYWGQGTQVTVSS	high polyreactivity
QVQLVESGGGLVQAGGSLRLICAASGNTFSVYTMGWYRQAPGKERELVAAISFRSGSTYYADSVKGRFTISRDNAKNTVYLLMNSLKPEDTAVYYCAAYVRQLQVVRGVSNYDSWGQGTQVTVSS	high polyreactivity
QVQLVESGGGLVQAGGSLRLSCAASGSIFLRYAMGSYRQAPGKDRELVAAITRSGGSTYYADSVKGRFTISRDNANNTVDLQMNSLKPEDTAVYYCAAYTLVTVGYDYWGQGTQVTVSS	high polyreactivity
QVQLVESGGGLVQAGGSLRLSCAASGFIFYTNAMGWYRQAPGKERELVAAISRGGTTYYADSVKGRFTISRDNAKNTVYLQMNSLKPEDTAVYYCAKAWPDHWYSRYDYWGQGTQVTVSS	low polyreactivity
QVQLVESGGGIVQAGGSLRLSCAASGSTFRGYAMGWYRQAPGKERELVAAITYISDSTYYADSVKGRFTISRDNAKNTVYLQMNCLKPVDTAVYYCNAYYDGDWRYTSQETGDHWGQGTQVTVSS	low polyreactivity
QVQLVESGGGLVQAGGSLRISCSASGGIFDPYAMGWYRQAPGKERELVAAITNSGGSTYYADSVKGRFTISRDNAKNTVYLQMNSLKPEDSAVYYCAAEGLYVGYDYWGHGTQVTVSS	low polyreactivity
QVQLVESGGGLVQAGGSLRLSCAASGRTFKYYTMGWYRQAPGKERELVAAITGSGGSTYYADSVKGRFTISRDNAKNTVYLQMNSLKPEDTAVYYCAAYRTFSREYYYWGQGTQVTVSS	high polyreactivity
QVQLEESGGGLVQAGGSLRLSCAASGSTFWLNAMGWYRQAPGKESELVASITWSGDSTYYADSVKGRFTISRDNAKNTVYLQMNSLKPEDTAVYYCNTDSILGQIWGATDDYWGQGTQVTVSS	low polyreactivity
QVQLQESGGGMVQAGGSLRLSCAASGYISWADYMGWYRQAPGKERELVAGIGYGSTTYYADSVKGRFTISRDNAKNTAYLQMNSLKPEDTAVYYCAVGWYRVTAYKYWGQGTQVTVSS	low polyreactivity
QVQLVESGGGLVQAGGSLRLSCAASGLTFGGYTMGWYRQAPGKERELVAAITSGGSTYYADSVKGRFTISRDNAKNTVYLQMNSLKPEDTAVYYCAARVRGWPVSKFGYWGQGTQVTVSS	high polyreactivity
QVQLVESGGGLVQAGGSLRLSCAASGFTFNANARGWYRQAPGKEREVVAVITRSGGRTYYADSVKGRFTISRDNAKNTVYFQMNSLNPEDTAVYYCAKEGPSRVYQGTDCASDSWGHGTQVTVSS	high polyreactivity
QVQLVESGGGLVQAGGSLRLSCAASGRTFSWNAMGWYRQAPGKERELVAAINRSGGITFYADSVKGRFTISRDNAKNTVYLHMNSLKPEDTAVYYSAADRSFGHHYWYSGKRYDYWGQGTQVTVSS	low polyreactivity
QVQLVESGGGLVQAGGSLRLSCAASGRIFRYNAMGWSRQAPGKERELVAAISRRGGTTYYADSVKGRFTISRDNAKNTVYLQMNSLKPEDTAVYDCAAQYRQRRHDYWGQGTQVTVSS	high polyreactivity
QVQLVESGGGLVHAGGSLRLSSAASGLIFGWYAMGWYRPAPGKEREFVASIRDGGGSTYYADSVNGRFTISRDNANNTVFLEMHSLKPEDSAVYYFAADRYPWHLQYVEYDSDFWGQGTQVTVSS	low polyreactivity
QVQLVESGGGLVQAGGSLRLSCAASGFTFSHNAMGWYRQAPGKERELVAAISGSGGRTYYADSVKGRFTISRDNAKNTVYLQMNSLKPEDTAVYYCNAGRWWRRGYGYWGQGTQVTVSS	high polyreactivity
QVQLVESGGGLVQAGGSLRISCAASGFTFGPYDMGWYRQAPGKERELVAAITDSSGSTHYADSVKGRFTISRDNAKNTVYFQMNSLKPEDTAVYTCAADDSSRTTYYYWGQGTEVTVSS	low polyreactivity
